biological target: Gap junction alpha-1 protein (Homo sapiens) (UniProt P17302); assay: Inhibition of human Cx43 expressed in kanamycin-resistant Escherichia coli LB2003 cells in medium containing […] K+ and 10 uM IPTG by measuring cell growth at 50 uM after 18 hrs by growth complementation assay; set-up: scale not given: the % may be the effect or the level left
Sequence (P17302 whole entry): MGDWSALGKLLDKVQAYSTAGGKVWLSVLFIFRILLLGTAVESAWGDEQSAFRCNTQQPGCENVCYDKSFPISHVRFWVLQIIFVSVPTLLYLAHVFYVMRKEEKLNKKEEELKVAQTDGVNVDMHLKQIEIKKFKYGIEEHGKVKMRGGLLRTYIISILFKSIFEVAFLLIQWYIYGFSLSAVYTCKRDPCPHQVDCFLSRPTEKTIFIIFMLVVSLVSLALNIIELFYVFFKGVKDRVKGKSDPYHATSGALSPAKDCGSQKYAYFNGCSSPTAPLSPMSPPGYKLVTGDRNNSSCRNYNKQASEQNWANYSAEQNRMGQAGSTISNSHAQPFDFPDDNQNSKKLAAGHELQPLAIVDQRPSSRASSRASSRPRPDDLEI
Overview of recorded Activity for various compounds
# output: bare number, implied unit %

Use these answered entries as a reference point.
Compound string	Activity, %
Cc1ccc(S(=O)(=O)OC[C@H]2O[C@H](O[C@@H]3[C@@H](O)[C@H](O[C@H]4O[C@H](CN)[C@@H](O)[C@H](O)[C@H]4O)[C@@H](N)C[C@H]3N)[C@H](O)[C@@H](N)[C@@H]2O)cc1	51
NC[C@H]1O[C@H](O[C@H]2[C@H](O)[C@@H](O[C@H]3O[C@H](COc4ccc(-c5ccccc5)cc4)[C@@H](O)[C@H](N)[C@H]3O)[C@H](N)C[C@@H]2N)[C@H](O)[C@@H](O)[C@@H]1O	54.3
CCCCCCCCCC(=O)NC[C@H]1O[C@H](O[C@H]2[C@H](O)[C@@H](O[C@H]3O[C@H](CO)[C@@H](O)[C@H](N)[C@H]3O)[C@H](N)C[C@@H]2N)[C@H](O)[C@@H](O)[C@@H]1O	53.5
NC[C@H]1O[C@H](O[C@H]2[C@H](O)[C@@H](O[C@H]3O[C@H](COc4ccc(Cl)cc4)[C@@H](O)[C@H](N)[C@H]3O)[C@H](N)C[C@@H]2N)[C@H](O)[C@@H](O)[C@@H]1O	68.3
Cc1ccc(OC[C@H]2O[C@H](O[C@@H]3[C@@H](O)[C@H](O[C@H]4O[C@H](CN)[C@@H](O)[C@H](O)[C@H]4O)[C@@H](N)C[C@H]3N)[C@H](O)[C@@H](N)[C@@H]2O)cc1	76.8
NC[C@H]1O[C@H](O[C@H]2[C@H](O)[C@@H](O[C@H]3O[C@H](COc4ccccc4)[C@@H](O)[C@H](N)[C@H]3O)[C@H](N)C[C@@H]2N)[C@H](O)[C@@H](O)[C@@H]1O	46.7
CCCCCCCC(=O)NC[C@H]1O[C@H](O[C@H]2[C@H](O)[C@@H](O[C@H]3O[C@H](CO)[C@@H](O)[C@H](N)[C@H]3O)[C@H](N)C[C@@H]2N)[C@H](O)[C@@H](O)[C@@H]1O	37.2
CCCCCCC(=O)NC[C@H]1O[C@H](O[C@H]2[C@H](O)[C@@H](O[C@H]3O[C@H](CO)[C@@H](O)[C@H](N)[C@H]3O)[C@H](N)C[C@@H]2N)[C@H](O)[C@@H](O)[C@@H]1O	36

Q: Return reported Activity; argument: NC[C@H]1O[C@H](O[C@H]2[C@H](O)[C@@H](O[C@H]3O[C@H](COc4ccc([N+](=O)[O-])cc4)[C@@H](O)[C@H](N)[C@H]3O)[C@H](N)C[C@@H]2N)[C@H](O)[C@@H](O)[C@@H]1O
A: 49.3

Q: Return reported Activity; argument: NC[C@H]1O[C@H](O[C@H]2[C@H](O)[C@@H](O[C@H]3O[C@H](CNC(=O)c4ccccc4-c4c5ccc(=O)cc-5oc5cc(O)ccc45)[C@@H](O)[C@H](N)[C@H]3O)[C@H](N)C[C@@H]2N)[C@H](O)[C@@H](O)[C@@H]1O
A: 55.1

Q: Return reported Activity; argument: COc1ccc(OC[C@H]2O[C@H](O[C@@H]3[C@@H](O)[C@H](O[C@H]4O[C@H](CN)[C@@H](O)[C@H](O)[C@H]4O)[C@@H](N)C[C@H]3N)[C@H](O)[C@@H](N)[C@@H]2O)cc1
A: 34.8

Q: Return reported Activity; argument: COc1ccc2cc(C(=O)NC[C@H]3O[C@H](O[C@H]4[C@H](O)[C@@H](O[C@H]5O[C@H](CO)[C@@H](O)[C@H](N)[C@H]5O)[C@H](N)C[C@@H]4N)[C@H](O)[C@@H](O)[C@@H]3O)ccc2c1
A: 45.1

Q: Return reported Activity; argument: N[C@@H]1[C@@H](O)[C@@H](O[C@@H]2[C@@H](O)[C@H](O[C@H]3O[C@H](CNC(=O)CCCc4cc5ccc6cccc7ccc(c4)c5c67)[C@@H](O)[C@H](O)[C@H]3O)[C@@H](N)C[C@H]2N)O[C@H](CO)[C@H]1O
A: 69.6

Q: Return reported Activity; argument: N[C@@H]1[C@@H](O)[C@@H](O[C@@H]2[C@@H](O)[C@H](O[C@H]3O[C@H](CNC(=O)c4cc(-c5ccccc5)nc5ccccc45)[C@@H](O)[C@H](O)[C@H]3O)[C@@H](N)C[C@H]2N)O[C@H](CO)[C@H]1O
A: 51

Q: Return reported Activity; argument: N[C@@H]1[C@@H](O)[C@@H](O[C@@H]2[C@@H](O)[C@H](O[C@H]3O[C@H](CNC(=O)c4ccccc4-c4c5ccc(=O)cc-5oc5cc(O)ccc45)[C@@H](O)[C@H](O)[C@H]3O)[C@@H](N)C[C@H]2N)O[C@H](CO)[C@H]1O
A: 83.4

Q: Return reported Activity; argument: NC[C@H]1O[C@H](O[C@H]2[C@H](O)[C@@H](O[C@H]3O[C@H](COc4ccc(-c5nc6ccccc6[nH]5)cc4)[C@@H](O)[C@H](N)[C@H]3O)[C@H](N)C[C@@H]2N)[C@H](O)[C@@H](O)[C@@H]1O
A: 71.7

Q: Return reported Activity; argument: CCCCCCCCCCCC(=O)NC[C@H]1O[C@H](O[C@H]2[C@H](O)[C@@H](O[C@H]3O[C@H](CO)[C@@H](O)[C@H](N)[C@H]3O)[C@H](N)C[C@@H]2N)[C@H](O)[C@@H](O)[C@@H]1O
A: 70.9

Q: Return reported Activity; argument: N[C@@H]1[C@@H](O)[C@@H](O[C@@H]2[C@@H](O)[C@H](O[C@H]3O[C@H](CNC(=O)c4ccc5cc(O)ccc5c4)[C@@H](O)[C@H](O)[C@H]3O)[C@@H](N)C[C@H]2N)O[C@H](CO)[C@H]1O
A: 37.1
